targetSystem: T1, DLL3 (ELISA DLL3)
T1 construct: also called DLL3 protein in ELISA
T1 chain: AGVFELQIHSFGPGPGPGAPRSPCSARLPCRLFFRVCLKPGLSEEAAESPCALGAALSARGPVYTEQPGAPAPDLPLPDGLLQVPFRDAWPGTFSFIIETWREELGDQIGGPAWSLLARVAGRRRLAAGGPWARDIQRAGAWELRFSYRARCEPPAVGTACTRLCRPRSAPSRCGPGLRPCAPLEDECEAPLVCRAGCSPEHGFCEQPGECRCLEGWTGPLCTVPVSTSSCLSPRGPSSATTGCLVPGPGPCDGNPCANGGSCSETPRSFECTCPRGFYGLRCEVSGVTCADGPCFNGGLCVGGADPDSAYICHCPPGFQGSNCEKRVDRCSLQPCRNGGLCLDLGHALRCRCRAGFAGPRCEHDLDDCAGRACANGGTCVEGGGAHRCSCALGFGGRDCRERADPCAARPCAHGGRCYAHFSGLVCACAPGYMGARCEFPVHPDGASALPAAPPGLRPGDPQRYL
procedureSummary: ELISA, ratio of the signal on DLL3 to the signal on the control
measure: DLL3 / control
Respond numerically, and do not add a unit to the figure.

binder	measure	reported
3HCE87 anti-DLL3 VHH (VHH, In the binning assay it was used as a periplasmic extract) VHH: QVQLQESGGGLVQAGGSLRLSCAASGFIFDDYIIGWFRQAPGKEREFVAAISWSGSATAYADSVKGRFTISRDNAKNTLYLQMNTLKPEDTAVYYCAASSRGPYNSGSSYDYWGQGTQVTVSS	DLL3 / control	18.8
2HCE117 anti-DLL3 VHH (VHH, In the binning assay it was used as a periplasmic extract) VHH: QVQLQESGGGLVQPGGSLRLSCAASGFTFSSYAMSWVRQAPGKGLEWVSDINSGGGSTYYADSVKGRFTISRDNAKNTLYLQMDSLKPEDTAVYYCATPFEIGSWGQGTQVTVSS	DLL3 / control	29.4

Attention now turns to another entry.
-- ask Name the reported DLL3 / control value associated with the binder 2HCE27 anti-DLL3 VHH (VHH, In the binning assay it was used as a periplasmic extract; also called anti-DLL3 (2HCE27)) VHH: QVQLQESGGGLVQAGGSLRLSCAASGRTFRSYAMGWFRQAPGKEREFIAVIIMSDGSTSYADSVKGRFTISRDNAKNTLYLQMNSLKPEDTAVYYCAARRDYFTGVYDYWGQGTQVTVSS
-- reply 33.3
